Property: self-splicing fitness (ln); scope: individual sequences
measurement-description: self-splicing fitness, log relative to wild type (ln ratio); higher = more splicing; Tetrahymena group I intron in knt gene, E. coli kanamycin selection, DiMSum; sequences stand for … in CUCUCU…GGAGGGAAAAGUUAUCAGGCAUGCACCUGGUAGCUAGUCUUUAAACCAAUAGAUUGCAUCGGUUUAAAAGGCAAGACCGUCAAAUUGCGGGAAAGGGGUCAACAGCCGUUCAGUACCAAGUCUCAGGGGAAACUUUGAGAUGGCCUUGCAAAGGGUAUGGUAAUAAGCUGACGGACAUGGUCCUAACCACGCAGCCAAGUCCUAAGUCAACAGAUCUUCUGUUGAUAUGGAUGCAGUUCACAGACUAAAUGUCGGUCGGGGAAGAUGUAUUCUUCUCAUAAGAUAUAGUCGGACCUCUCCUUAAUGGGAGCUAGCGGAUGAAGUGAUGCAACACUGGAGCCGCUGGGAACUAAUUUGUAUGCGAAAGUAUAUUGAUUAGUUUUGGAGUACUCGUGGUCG;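 note: selection with 25 µg/mL kanamycin versus none on LB agar overnight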
study-conditions: 30 °C

{"seq-string": "CUAAAGCAAUAUUACGUGUG", "measurement": -0.323}
{"seq-string": "AUCUAGCAAUAUUACGUGAU", "measurement": -1.16}
{"seq-string": "UAAAAGCAAUAUUACGGACU", "measurement": -1.21}
{"seq-string": "CAAUAGCAAUAUUACGUGCG", "measurement": -0.75}
{"seq-string": "GGUCAGCAAUAUUACGUCGG", "measurement": -3.9}

Could you please provide reported self-splicing fitness (ln) for `UUCGAGCAAUAUUACGAGAU` ? Thanks!
-3.95

* * *

measurement-description: self-splicing fitness, log relative to wild type (ln ratio); higher = more splicing; Tetrahymena group I intron in knt gene, E. coli kanamycin selection, DiMSum; sequences stand for … in CUCUCU…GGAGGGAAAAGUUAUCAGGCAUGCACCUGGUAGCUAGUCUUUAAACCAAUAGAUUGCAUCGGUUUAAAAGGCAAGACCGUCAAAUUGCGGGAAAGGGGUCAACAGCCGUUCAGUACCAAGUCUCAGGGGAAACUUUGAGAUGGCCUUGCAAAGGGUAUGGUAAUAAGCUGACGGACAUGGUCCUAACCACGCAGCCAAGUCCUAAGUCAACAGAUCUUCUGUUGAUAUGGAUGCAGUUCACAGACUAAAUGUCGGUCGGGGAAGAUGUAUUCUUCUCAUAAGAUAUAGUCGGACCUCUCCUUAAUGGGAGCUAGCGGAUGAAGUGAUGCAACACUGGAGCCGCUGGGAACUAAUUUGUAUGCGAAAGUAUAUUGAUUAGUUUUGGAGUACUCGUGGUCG
study-conditions: 30 °C
// map self-splicing fitness (ln) to label using small value: < -3; mid value: ≥ -3 and < -0.9; large value: ≥ -0.9

Examples with answers:
{"seq-string": "AGCAAGCAAUAUUACGUGCA", "classification": "large value"}
{"seq-string": "UUGGAGCAAUAUUACGCUUG", "classification": "mid value"}
{"seq-string": "UUAUAGCAAUAUUACGAGGC", "classification": "small value"}
{"seq-string": "CGCGAGCAAUAUUACGCGUG", "classification": "mid value"}
{"seq-string": "GGUAAGCAAUAUUACGCAAA", "classification": "mid value"}
{"seq-string": "UUUCAGCAAUAUUACGCUCA", "classification": "large value"}

Pick a category. Item: `ACCUAGCAAUAUUACGCACA`
mid value

Category lookup for the sequence `GUCGAGCAAUAUUACGCAAA`
mid value

Quick check: band for `CACCAGCAAUAUUACGAGCG`
large value

The entry to classify is `CAACAGCAAUAUUACGUCAU` ; which class holds it?
small value

* * *

measurement-description: self-splicing fitness, log relative to wild type (ln ratio); higher = more splicing; Tetrahymena group I intron in knt gene, E. coli kanamycin selection, DiMSum; sequences stand for … in CUCUCU…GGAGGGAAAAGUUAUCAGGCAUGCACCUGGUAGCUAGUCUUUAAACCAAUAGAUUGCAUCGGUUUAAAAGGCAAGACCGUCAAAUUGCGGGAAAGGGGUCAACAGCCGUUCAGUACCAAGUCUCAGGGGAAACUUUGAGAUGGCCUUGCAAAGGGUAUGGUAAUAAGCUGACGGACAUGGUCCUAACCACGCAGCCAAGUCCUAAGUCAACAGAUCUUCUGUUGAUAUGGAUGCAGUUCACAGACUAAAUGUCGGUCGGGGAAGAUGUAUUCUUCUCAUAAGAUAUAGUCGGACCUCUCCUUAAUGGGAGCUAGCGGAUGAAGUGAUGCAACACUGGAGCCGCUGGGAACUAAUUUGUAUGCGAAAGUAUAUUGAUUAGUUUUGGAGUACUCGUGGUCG
study-conditions: 37 °C
The following ranges of self-splicing fitness (ln) define the classes used here: 1 = under -2, 2 = from -2 up to -1, 3 = -1 and over

Known results for sequences:
{"seq-string": "CGCCAGCAAUAUUACGGACU", "classification": 3}
{"seq-string": "CUCGAGCAAUAUUACGCAUC", "classification": 1}
{"seq-string": "GCGAAGCAAUAUUACGUGAA", "classification": 3}
{"seq-string": "AAUUAGCAAUAUUACGGGGA", "classification": 1}
{"seq-string": "CGAAAGCAAUAUUACGGUAA", "classification": 2}
{"seq-string": "CCAGAGCAAUAUUACGUGAC", "classification": 1}

Please let me know in which category the item `UCUCAGCAAUAUUACGGCCG` belongs.
1

Sort `GAUAAGCAAUAUUACGUUUU` into one of the categories.
2

Lab log: `GAUCAGCAAUAUUACGAACG` — assign self-splicing fitness (ln) category
3

* * *

measurement-description: self-splicing fitness, log relative to wild type (ln ratio); higher = more splicing; Tetrahymena group I intron in knt gene, E. coli kanamycin selection, DiMSum; sequences stand for … in CUCUCU…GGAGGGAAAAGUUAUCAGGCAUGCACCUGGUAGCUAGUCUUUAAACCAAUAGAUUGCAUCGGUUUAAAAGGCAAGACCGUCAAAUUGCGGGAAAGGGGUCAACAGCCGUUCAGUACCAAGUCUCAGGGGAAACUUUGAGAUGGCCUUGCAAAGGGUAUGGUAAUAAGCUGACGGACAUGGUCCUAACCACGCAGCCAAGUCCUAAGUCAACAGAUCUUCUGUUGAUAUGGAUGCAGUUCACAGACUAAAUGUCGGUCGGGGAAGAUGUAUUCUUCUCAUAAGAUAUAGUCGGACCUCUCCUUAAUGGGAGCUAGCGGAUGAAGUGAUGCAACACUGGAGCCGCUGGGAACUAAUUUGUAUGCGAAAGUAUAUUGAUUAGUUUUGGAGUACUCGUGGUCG
study-conditions: 30 °C
readout-kind: self-splicing fitness (ln)

{"seq-string": "AUGCAGCAAUAUUACGUGUA", "self-splicing fitness (ln)": -2.34}

Please look at this sequence and report its self-splicing fitness (ln): `AAUGAGCAAUAUUACGCGCG`
-2.52

Report self-splicing fitness (ln) for `ACUUAGCAAUAUUACGCUAU`
-3.05

Give the reported self-splicing fitness (ln) for this sequence. `AGAGAGCAAUAUUACGUACU`
-1.2

Read off the recorded self-splicing fitness (ln) for `CGCGAGCAAUAUUACGAUGA`
-3.39

Give the measured self-splicing fitness (ln) for `UGGUAGCAAUAUUACGGUGC`
-2.31

Fill in self-splicing fitness (ln) for record `UGUAAGCAAUAUUACGACGG`
-1.46

Report self-splicing fitness (ln), nothing else, for this sequence: `UUAAAGCAAUAUUACGGCUC`
-0.0999

* * *

measurement-description: self-splicing fitness, log relative to wild type (ln ratio); higher = more splicing; Tetrahymena group I intron in knt gene, E. coli kanamycin selection, DiMSum; sequences stand for … in CUCUCU…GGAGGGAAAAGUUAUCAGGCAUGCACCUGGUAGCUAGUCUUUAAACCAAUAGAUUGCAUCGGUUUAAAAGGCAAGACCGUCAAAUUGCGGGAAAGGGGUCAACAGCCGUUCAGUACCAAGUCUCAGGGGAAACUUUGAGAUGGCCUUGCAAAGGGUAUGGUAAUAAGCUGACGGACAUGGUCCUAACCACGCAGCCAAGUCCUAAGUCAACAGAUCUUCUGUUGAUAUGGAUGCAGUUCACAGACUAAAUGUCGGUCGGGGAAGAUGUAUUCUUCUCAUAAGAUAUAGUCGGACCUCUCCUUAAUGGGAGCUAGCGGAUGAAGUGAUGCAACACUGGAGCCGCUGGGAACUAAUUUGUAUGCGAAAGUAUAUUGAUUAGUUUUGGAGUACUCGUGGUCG
study-conditions: 37 °C
Returns the class for an entry based on its self-splicing fitness (ln). Class ranges: I: < -2; II: ≥ -2 and < -0.5; III: ≥ -0.5

Example entries begin here.
{"seq-string": "UCUCAGCAAUAUUACGUCAU", "classification": "I"}
{"seq-string": "GGAAAGCAAUAUUACGAAGA", "classification": "II"}

Continue with the sequence presented below.
Dear colleague, I would appreciate it if you could identify the bin for `GGGAAGCAAUAUUACGACUC` and reply at your convenience.
III
